# assay-details: Vero cell cytotoxicity, CellTiter-Glo, 2 days
# Assay type: cell-based
# condition-parameters: African green monkey, Vero cells (CCL81), 2 days exposure
test-readout: IC50 at 2 days (µM)
Provide the reading as a plain figure in µM.

Solved cases below.
[
  {
    "cpd-smiles": "Oc1cccc2ccc(/C=C/c3ccccc3Cl)nc12",
    "unit-string": "µM",
    "IC50 at 2 days": 9
  },
  {
    "cpd-smiles": "COc1ccccc1/C=C/c1ccc2cccc(O)c2n1",
    "unit-string": "µM",
    "IC50 at 2 days": 6.2
  },
  {
    "cpd-smiles": "Oc1cccc2ccc(/C=C/c3cccc(F)c3)nc12",
    "unit-string": "µM",
    "IC50 at 2 days": 7.2
  }
]

# ---- query molecule ----
Task item: Give the measured IC50 at 2 days of `OCc1ccccc1CN1CCN(Cc2ccc3cccc(O)c3n2)CC1` .
Reply: 11
